biological target: human NPFF2 receptor (Homo sapiens); construct: purchased Euroscreen s.a; (Brussels, Belgium); experiment: Fluorescence polarization (FP) competition binding assay, TAMRA-NPFF tracer, 0.1% Pluronic F-127; details: FP competition binding, TAMRA-NPFF tracer, human NPFF2 receptor membrane preparation; means ± S.E. of three separate experiments
Sequence (Q9Y5X5 whole entry): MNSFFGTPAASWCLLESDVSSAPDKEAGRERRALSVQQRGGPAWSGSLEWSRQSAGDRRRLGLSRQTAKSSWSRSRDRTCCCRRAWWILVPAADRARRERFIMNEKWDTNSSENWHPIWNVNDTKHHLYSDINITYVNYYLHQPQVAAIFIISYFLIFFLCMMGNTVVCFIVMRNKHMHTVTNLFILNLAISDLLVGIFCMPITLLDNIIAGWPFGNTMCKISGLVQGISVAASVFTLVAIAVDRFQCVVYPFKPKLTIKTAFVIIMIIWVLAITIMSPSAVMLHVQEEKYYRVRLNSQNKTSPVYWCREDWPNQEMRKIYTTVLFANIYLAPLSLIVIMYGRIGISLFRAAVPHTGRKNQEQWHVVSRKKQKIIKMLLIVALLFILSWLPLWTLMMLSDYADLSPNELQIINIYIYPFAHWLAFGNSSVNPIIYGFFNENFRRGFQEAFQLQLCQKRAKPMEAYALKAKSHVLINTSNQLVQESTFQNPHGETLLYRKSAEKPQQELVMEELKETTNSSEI
Where a SMILES comes first, the peptide text is derived from it. [ ]: non-standard residue; d: D form. NMeF = CN[C@@H](Cc1ccccc1)C(=O)O
Quantity Kind: Ki (nM)
Output spec: scalar in nM, unitless text.

- CC(C)C[C@H](NC(=O)[C@H](N)Cc1ccc(O)cc1)C(=O)N(C)[C@@H](Cc1ccccc1)C(=O)N[C@@H](CCC(N)=O)C(=O)N1CCC[C@H]1C(=O)N[C@@H](CCC(N)=O)C(=O)N[C@@H](CCCN=C(N)N)C(=O)N[C@@H](Cc1ccccc1)C(N)=O [[D-Tyr^1(NMe)Phe^3]NPFF, [D-Tyr^1, (N-Me)Phe^3]NPFF] (H-[dY]L[NMeF]QPQRF-NH2): 0.46

I'd like to know its Ki. The compound in question is NC(N)=NCCC[C@@H](NC(=O)C(c1ccccc1)c1ccccc1)C(=O)NCc1ccc(O)cc1 [BIBP3226]
96
